- Assay remarks: qHTS assay to identify small molecule agonists of the androgen receptor (AR) signaling pathway in the presence of an antagonist - cell viability counter screen (AID 1259379); further: nearly all actives have a fitted effect of over 25% in size
- Reported conditions: MDA-kb2 viability, CellTiter-Fluor, 16 h; series mostly up to 92.4 µM
Records with an inconclusive call do not appear. The source made the active and inactive calls. The call rests on the fitted dose curve; in most records, active means well fitted cell-killing curve with a large enough effect in the repeat runs; inconclusive means weak or mixed curves, or effect the other way; inactive means flat fitted curve, though single readings scatter.
Outcomes: Yes (active), No (inactive)

[[record]]
compound = "CC(O)(P(=O)(O)O)P(=O)(O)O"
cat = "No"

[[record]]
compound = "C/C=C/C=C/C(=O)O"
cat = "No"

[[record]]
compound = "O=c1[nH]cnc2c1ncn2[C@H]1CC[C@@H](CO)O1"
cat = "No"

[[record]]
compound = "CCCCCCc1ccc(O)cc1O"
cat = "No"

[[record]]
compound = "CCCCCCCC(=O)OCC(COC(=O)CCCCCCC)OC(=O)CCCCCCC"
cat = "No"

[[record]]
compound = "CCCCOC(=O)c1ccc(O)cc1"
cat = "No"

[[record]]
compound = "CCOC(N)=O"
cat = "No"

[[record]]
compound = "Nc1c(N=Nc2ccc(-c3ccc(N=Nc4cc(S(=O)(=O)O)c5ccccc5c4N)cc3)cc2)cc(S(=O)(=O)O)c2ccccc12"
cat = "Yes"

[[record]]
compound = "O=C(Nc1ncc([N+](=O)[O-])s1)c1cccs1"
cat = "Yes"

[[record]]
compound = "CN1CCC[C@H]1c1cccnc1"
cat = "No"

[[record]]
compound = "O=C1NS(=O)(=O)c2ccccc21"
cat = "No"

[[record]]
compound = "CC(=O)Nc1c(I)c(NC(C)=O)c(I)c(C(=O)O)c1I"
cat = "No"

[[record]]
compound = "NS(=O)(=O)c1cc2c(cc1Cl)NCNS2(=O)=O"
cat = "No"

[[record]]
compound = "CS(=O)(=O)OCCCCOS(C)(=O)=O"
cat = "No"

[[record]]
compound = "NC(=O)n1c(O)c(C(=O)c2cccs2)c2cc(Cl)ccc21"
cat = "Yes"

[[record]]
compound = "Cc1cccc(C)c1"
cat = "No"

[[record]]
compound = "CCCc1cc(=O)[nH]c(=S)[nH]1"
cat = "No"

[[record]]
compound = "O=c1[nH]cc(F)c(=O)[nH]1"
cat = "No"

[[record]]
compound = "O=C1NC(=O)C(c2ccccc2)(c2ccccc2)N1"
cat = "No"

[[record]]
compound = "CN(C)C(=O)Nc1ccc(Cl)c(Cl)c1"
cat = "No"

[[record]]
compound = "COc1ccc(OC(F)(F)F)cc1CN[C@H]1CCCN[C@H]1c1ccccc1"
cat = "Yes"

[[record]]
compound = "CC1(C)O[C@@H]2C[C@H]3[C@@H]4CCC5=CC(=O)C=C[C@]5(C)[C@@]4(F)[C@@H](O)C[C@]3(C)[C@]2(C(=O)CO)O1"
cat = "No"

[[record]]
compound = "Cc1cn([C@H]2C=C[C@@H](CO)O2)c(=O)[nH]c1=O"
cat = "No"

[[record]]
compound = "COc1ccc2cc(S(=O)(=O)N[C@H](CC(=O)N[C@H](Cc3ccc(CN4[C@H](C)CCC[C@@H]4C)cc3)C(=O)N(C)C(C)C)c3ccc4c(c3)OCO4)ccc2c1"
cat = "Yes"

[[record]]
compound = "O=C(O)CC(O)C(=O)O (stereo unspecified)"
cat = "No"

[[record]]
compound = "Cc1ncc([N+](=O)[O-])n1C"
cat = "No"

